- Test system: 521955-158-R2-J5-PDC complex spheroids, viability;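 also: spheroids also contain HUVEC endothelial cells and mesenchymal stem cells as stroma; compound exposure lasted seven days before the viability read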
- PROCEDURE SUMMARY: Anticancer human tumor 521955-158-R2-J5-PDC patient-derived pancreatic carcinoma cell line growth inhibition [RAS]
- CONDITION LABEL: second compound 0.000949 µM; first compound 0.1 µM; active compounds read low
READOUT TYPE: viability, T/C (%)
Your answer is read as %, so omit the unit and give the number.

// viability, T/C lookup, molecule = Nc1ccn(C2OC(CO)C(O)C2(F)F)c(=O)n1 (stereo not drawn) + CCn1c(-c2cc(N3CCN(C)CC3)cnc2C(C)OC)c2c3cc(ccc31)-c1csc(n1)CC(NC(=O)C1CC1C)C(=O)N1CCCC(N1)C(=O)OCC(C)(C)C2 , result: 21

// viability, T/C lookup, molecule = CC(C)NCC(C(=O)N1CCN(c2ncnc3c2C(C)CC3O)CC1)c1ccc(Cl)cc1 (stereo not drawn) + CCn1c(-c2cc(N3CCN(C)CC3)cnc2C(C)OC)c2c3cc(ccc31)-c1csc(n1)CC(NC(=O)C1CC1C)C(=O)N1CCCC(N1)C(=O)OCC(C)(C)C2 , result: 38.8
